experiment: protease stability score; higher = more stable; yeast display proteolysis, trypsin and chymotrypsin;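 also: relative to predicted unfolded state with 0 unfolded-like and 1 meaning tenfold more protease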
parameterMeasured: protease stability score

Quick one: give me protease stability score for each item below, same order please.
1. SEEDHEHKVLTELSRKDWRTGNEHDLERLMDPNVRVEVDGREHHGWESAHELAKHFHRFFKNATLEIRHEEIQGEYLHIEMIIRVGDKVFDVHFIARKINGRWVLTEFSVH
2. SEEKEDIDLAMEIFLHALETGDWEELLRQMDPNVRIVIGDKETHGREEFELTLLKLGIDHFHIKDMKLINGRLHLDTRVHFNGVTVQTEIIIVKFNGRWVIEEMDFQ
3. DEEEEHSKLADEEMLHNLLTGNEEHINKMADPNVRIVIGDKELHGMERWREEMRFFKGARIEIKRSRIFTQGDKMHSEVDGTLNFNGRRVEILIVLVVRKVNGRWRIEMISYHIV
4. SEDHDTDRHIMDLILRDVFTGDEEEFTRLADPNVKHIDENHFSVGWENVLEMLRFWEDEARMTDIKIHDLEIQGDKIVSHVHIDGEVNGKRRELEVIIYILKVDGKWHLEYFEVR
5. DHEHRFMEETLERLLHVWRTGDESLIHELADPEARSDVNGREHHGRERFVDTVRHLGVKHVELKDWTIQGEKVHLSTEVDVGDKTFDFEIIIYKINGKWLIHEMRVK
6. SEEEHRMREILDLLTESFHTGDERIHLEYADPHARFDIGDKHIHGRELFTKRWKEWLERFKNITLQLRIDDVSIIDGVFVVEGTLTIRINGVEIERDTHIFLYIVDGRVSTMKRTIH
7. SEDEEHDHKLARWILELLHTGDEETFLDLMDPNTRVIIHVGDKRIHNHGREVVKRIQEQLEEDWGVSRVEIHIRRMTIIDGRVRIDGLLEYDGRRHEIHMIFVIINGKIHSEEQHIH
8. DERTEVSEEFHRILIKVWRTGDETLSHQLADPHAKAEIGDKTIHGRDLWKEVFRRESERYDHYDSRLKDVKVQGDYINLDVHLILHVDGVPVRTDVIEIVLKFNGRWRLHSFHVK

[0.261, 2.4, 1.57, 2.2, 0.945, -0.116, 1.46, 0.684]

Quick one: give me protease stability score for each item below, same order please.
1. SEEEKHVIKMAEILLKSVLTGDWDKIKKMLDPNVKFHFHAENRHEEDHGMERVMDWMIKVRERFDVLEIEVTNSDVYGDKAVVDGRLINIIGDKRIETRVIIIIVVVDGRIHSIYFVIK
2. SEDERRFREALRIWFQLVRTGDEEELKHFFDPNVRIHIGDKTFHGMELVLRQIVEEAREIRVRSVTIHELDRQGEWIHMDVRIDEEINGRRIHHSVEIIALKINGKWFFHSIIIR
3. DEDHERTKLFSKLFLKWTHTGDWEKILENADPNVRMHIGDKNFHGMHEVWRFLHEHLEKLGADVHSLTDLKIEAYNGVVVVHVEGTENINGRDITSRLHLIVIKVDGRWIIREIRVTIS

2.54
1.4
1.29

Quick one: give me protease stability score for each item below, same order please.
1. TEKEEIVEETMKQLLHAEETGDWRTIEHLLDPNTRIIVEFNGVEIVLHGREEAVKFMFDFARHWRIKDFKVESIDIQGNKVHMRIRVDMEFNGKHIRTETNIHTVVVDGRIKSHERRVE
2. SELDEDFRHMVELFAFHMLTGDEHEVHRLADPHYRYEQGDKNIIGRDEWIRFLREIRIHVNSIHIRRLDYVGDKIEADVHFDVLIHVNGVRIRHRHDSHLFWEKVDGRWVLHSVRVL
3. DEREEFVLSMAELWIHAVLTGDEELERQLIDPHARNNINGRTIHGMEMFNKFWIRLLQEIRFEIEIRRFHIQGEKMHFDGVLRLRYDGREEVLRVHVEIVIVDGRLHEVHIKIK
4. DEDMKIASHVFHLIMHILHTGDEDSLKELADPDYRWLFNGVSNVGREESVRRLEEIRLEMKDTKTRSAKIYDGRIELHSHVRGNLNVNGVEIEHSVRSRLFVSKVDGKWLVEHIEIG

1: 1.63; 2: 1.36; 3: 1.33; 4: -0.045
